Experiment: Kinetic solubility in water and bio-relevant media (SGF, FaSSIF, FeSSIF) at 37° C.
Format: physicochemical
Conditions: FaSSIF, 37° C., 4 hrs; residual solids by XRPD
Where a name gives a salt, the structure may show the parent alone.
Measurement label: FC: Form change

Example cases with answers are listed next.
N#Cc1ccc(COc2cccc(C3CCN(Cc4nc5ccc(C(=O)O)cc5n4Cc4cncs4)CC3)n2)c(F)c1 [Potassium salt Type A]; No
N#Cc1ccc(COc2cccc(C3CCN(Cc4nc5ccc(C(=O)O)cc5n4Cc4cncs4)CC3)n2)c(F)c1 [Tris salt Type C]; Yes
N#Cc1ccc(COc2cccc(C3CCN(Cc4nc5ccc(C(=O)O)cc5n4Cc4cncs4)CC3)n2)c(F)c1 [Freeform Type C]; No
N#Cc1ccc(COc2cccc(C3CCN(Cc4nc5ccc(C(=O)O)cc5n4Cc4cncs4)CC3)n2)c(F)c1 [Meglumine salt Type A]; Yes

Could you now consider this next molecule?
Any idea what its FC: Form change is? The molecule is N#Cc1ccc(COc2cccc(C3CCN(Cc4nc5ccc(C(=O)O)cc5n4Cc4cncs4)CC3)n2)c(F)c1 [Fumarate Type A]
No

====

Assay: pH solubility in pH 1.0-8.0 buffers at RT
Type: physicochemical
Conditions: pH 1.0 buffer, pH 1, aqueous buffer, thermodynamic from solid, 24 Hours, LOQ = 0.0001 mg/mL
Measurement label: solubility at 24 h
Report as: number unit

Find the recorded solubility at 24 h belonging to N#Cc1ccc(COc2cccc(C3CCN(Cc4nc5ccc(C(=O)O)cc5n4Cc4cncs4)CC3)n2)c(F)c1 [Freeform Type C] and report it.
130 µg/mL

====

Experiment: Kinetic solubility in water and bio-relevant media (SGF, FaSSIF, FeSSIF) at 37° C.
Type: physicochemical
Details: FaSSIF, 37° C., 24 hrs; residual solids by XRPD
Where a name gives a salt, the structure may show the parent alone.
Measurement label: FC: Form change

N#Cc1ccc(COc2cccc(C3CCN(Cc4nc5ccc(C(=O)O)cc5n4Cc4cncs4)CC3)n2)c(F)c1 [Meglumine salt Type A]; Yes
N#Cc1ccc(COc2cccc(C3CCN(Cc4nc5ccc(C(=O)O)cc5n4Cc4cncs4)CC3)n2)c(F)c1 [Potassium salt Type A]; Yes
N#Cc1ccc(COc2cccc(C3CCN(Cc4nc5ccc(C(=O)O)cc5n4Cc4cncs4)CC3)n2)c(F)c1 [Freeform Type C]; No
N#Cc1ccc(COc2cccc(C3CCN(Cc4nc5ccc(C(=O)O)cc5n4Cc4cncs4)CC3)n2)c(F)c1 [Fumarate Type A]; No

Next up:
Field request: FC: Form change | item: N#Cc1ccc(COc2cccc(C3CCN(Cc4nc5ccc(C(=O)O)cc5n4Cc4cncs4)CC3)n2)c(F)c1 [Tris salt Type C]
Yes

====

Experiment: Kinetic solubility in water and bio-relevant media (SGF, FaSSIF, FeSSIF) at 37° C.
Assay type: physicochemical
Conditions: FeSSIF, 37° C., 1 hr; residual solids by XRPD
Counter-ions that a name gives are not always drawn.
Measurement label: FC: Form change

N#Cc1ccc(COc2cccc(C3CCN(Cc4nc5ccc(C(=O)O)cc5n4Cc4cncs4)CC3)n2)c(F)c1 [Fumarate Type A]; No
N#Cc1ccc(COc2cccc(C3CCN(Cc4nc5ccc(C(=O)O)cc5n4Cc4cncs4)CC3)n2)c(F)c1 [Freeform Type C]; No
N#Cc1ccc(COc2cccc(C3CCN(Cc4nc5ccc(C(=O)O)cc5n4Cc4cncs4)CC3)n2)c(F)c1 [Meglumine salt Type A]; Yes
N#Cc1ccc(COc2cccc(C3CCN(Cc4nc5ccc(C(=O)O)cc5n4Cc4cncs4)CC3)n2)c(F)c1 [Tris salt Type C]; No

# input for lookup
Look at this compound and give its reported FC: Form change. N#Cc1ccc(COc2cccc(C3CCN(Cc4nc5ccc(C(=O)O)cc5n4Cc4cncs4)CC3)n2)c(F)c1 [Potassium salt Type A]
No
